- test description: Components of the Cytosolic LPS Sensing Pathway: Gene Identification via Genome-wide siRNA Screen
- particulars: RAW264.7 macrophages, IL-1a HTRF, actives lie on both sides, screened at 100 nM (by protocol), cells primed 5 h with Pam3CSK4 first
Screen size: about 53,000 sequences; about 3,700 (7%) were called active. Only a selection was taken, and actives are over-represented in it overall.
Mark T for z-score under 2, F if at or over.

[
  {
    "biosequence": "GGACACAAGUUUUCAGAUCTT against Elmod2",
    "label": "F"
  },
  {
    "biosequence": "CCUCUGAGUGGAACACCUATT against Sfr1",
    "label": "T"
  },
  {
    "biosequence": "GGUAUUAUGACUGUAAAGGTT against Endou",
    "label": "T"
  },
  {
    "biosequence": "GGGCGACUUUAGCUUUUAUTT against Pced1b",
    "label": "F"
  },
  {
    "biosequence": "GCCUGUCUGCCUUUGCUUCTT against H4c9",
    "label": "F"
  },
  {
    "biosequence": "GAUGACUAGCUCUACUUUATT against Olfr738",
    "label": "T"
  },
  {
    "biosequence": "GGAACAAUUGUUCCUGUGATT against Kcne1",
    "label": "T"
  },
  {
    "biosequence": "GGAGAUCCGUCGAAUCAACTT against Anxa4",
    "label": "F"
  },
  {
    "biosequence": "CGAUUUUACCAACCGCUGCTT against Chtf18",
    "label": "T"
  },
  {
    "biosequence": "GGCGUGUAUGUCAAAAAUATT against Grip1",
    "label": "T"
  },
  {
    "biosequence": "GCUAAAUUACACAUUGACCTT against Vcam1",
    "label": "T"
  },
  {
    "biosequence": "GGAGAAGAUAGAAGCUGAGTT against Rad23a",
    "label": "T"
  }
]
